Test system: MALME-3M melanoma
Assay: NCI tumour cell line growth inhibition, 48 h; in the data active means GI50 below about 0.43 µM; inactive means the rest
Parameter call: string, one of active, inactive

Below, 5 molecules whose answers are already recorded.
Recorded call for CC(=O)[CH-]C(=O)c1ccccc1.CC(=O)[CH-]C(=O)c1ccccc1.O=C([O-])c1ccc([O-])cc1.O=C([O-])c1ccc([O-])cc1.[Ti+4] ?
inactive

Recorded call for Cc1ccc(/C(=C/C=C(C#N)C#N)Sc2ccc(Cl)cc2)cc1 ?
inactive

Recorded call for CCC[CH2][Sn]1([CH2]CCC)[O]C(=O)C(C(C)C)N=Cc2ccccc2[O]1 (stereo not drawn) ?
active

Recorded call for CCOC(=O)c1cc(/C(=N\O)c2cc(OC)c(OC)c(OC)c2)n2cc(C)cc(C)c12 ?
inactive

Recorded call for COc1cc(C2=NN(C(C)=O)C(c3ccc(OC(C)=O)cc3OC(C)=O)O2)c(OC(C)=O)c2ccccc12 (stereo not drawn) ?
inactive

***
Recorded call for CCN1C(=O)CNc2ncc(-c3ccc(-c4ncn[nH]4)nc3C)nc21 ?
active

Recorded call for CCN(CC)c1sc(N(CC)CC)c2c1SSSSS2 ?
inactive

Recorded call for COc1ccc2c(c1)C(=O)c1c-2n(CCCn2ccnc2)c(=O)c2ccccc12 ?
inactive

---

System: SR leukemia
Experiment: NCI tumour cell line growth inhibition, 48 h
Property Label: TGI (µM)
Answers are plain numbers, in µM.

Fill in the blank: the reported TGI of CC/C=C\C[C@@H]1C/C=C2/C(=O)C=C[C@H]2C/C=C\CCCC(=O)O1 is ____.
0.731

For every listed record, write down its TGI.
1. Cc1cc(C)c(C(=O)CC(=O)c2cccnc2)c(C)c1
2. c1ccc(C2=NNC3c4ccccc4-c4ccccc4N3C2)cc1 (stereo unspecified)

1. 33.2
2. 56.8

---

Tested on: SNB-75 CNS
Assay: NCI tumour cell line growth inhibition, 48 h
Property Label: TGI

Answered examples (3):
Fill in the blank: the reported TGI of CC1(C)C2CC(O)C1(C)CC2=O (configuration not stated) is ____.
> 100 µM

Fill in the blank: the reported TGI of O=C1CC(Br)c2c(Br)sc(Br)c21 (configuration not stated) is ____.
42.4 µM

Fill in the blank: the reported TGI of C=CC(C)(C)n1cc(C2=C3OC(=O)C(c4cn(C(C)(C)C=C)c5ccccc45)=C3OC2=O)c2ccccc21 is ____.
> 100 µM

For every listed record, write down its TGI.
1. CN(CCC(=O)N1CC(CCl)c2ccc([N+](=O)[O-])cc21)CCC(=O)N1CC(CCl)c2ccc([N+](=O)[O-])cc21 (configuration not stated)
2. COc1ccc(C2C(C(=O)O)=C(CO)Oc3cc4c(cc32)OCO4)cc1 (configuration not stated)
3. C=CCCCCCCCCC(=O)NS(=O)(=O)c1ccccc1
4. NC(=O)NC1NC(=O)NC1=O (configuration not stated)
5. COc1ccc(C(=O)c2cc(C)c(OC)c(C)c2)c(OC)c1N(C(=O)C(Cl)Cl)C(=O)C(Cl)Cl
6. CCC1CN2CCc3cc(OC)c(OC)cc3C2CC1CC1c2cc(OC)c(OC)cc2CCN1C(=O)C(N)Cc1ccccc1 (configuration not stated)

1: 19 µM; 2: > 100 µM; 3: > 100 µM; 4: > 100 µM; 5: > 100 µM; 6: 10.6 µM

For every listed record, write down its TGI.
1. O=C(N/N=C/c1cccc(O)c1O)c1ccccc1
2. CCS(=O)(=O)c1ccc(OC)c(Nc2ncc(-c3cccc(OC)c3)o2)c1
3. CC(C)C[C@H]1[C@@H](OCc2ccccc2)COS(=O)(=O)N1[C@H](C)c1ccccc1
4. CCCCCCCCCCCCCCCCP(=O)(O)OCC(N)C(=O)O (configuration not stated)

["85.6 µM", "> 18.2 µM", "> 100 µM", "65.1 µM"]

For every listed record, write down its TGI.
1. NCc1ccc(-c2ccc(CN)s2)s1
2. C[N+]12CCCCC1C(COc1cccc3cccnc13)CCC2 (configuration not stated)
3. CCN(CC)CCN1CC(O)=C(c2nc(-c3ccc(Cl)cc3)cs2)C1=N
4. CCc1[nH]c(=O)nc(N)c1-c1ccc(N2CCCCC2)c([N+](=O)[O-])c1
5. COc1cc2c(/C=C3/C(=O)Nc4ccc(O)cc43)c(Cl)n(Cc3ccccc3)c2cc1C
6. CN/N=C(/CCN1CCCC1)CC(c1ccccc1)c1c(O)c2ccccc2oc1=O (configuration not stated)

["> 100 µM", "> 100 µM", "3.4 µM", "> 100 µM", "> 100 µM", "> 31.6 µM"]

---

Test system: HS 578T breast
Assay: NCI tumour cell line growth inhibition, 48 h
Property Label: TGI

Answered examples (3):
Fill in the blank: the reported TGI of COc1cc(OC)c(/C=C/C(=O)c2c(OC)cccc2OC)c(OC)c1 is ____.
> 36.3 µM

Fill in the blank: the reported TGI of COC(=O)c1ccccc1/C=C1\Cc2c(C)c3c(c(C)c2C1=O)CCC3 is ____.
95.6 µM

Fill in the blank: the reported TGI of CC(C)C[C@H]1[C@@H](OCc2ccccc2)COS(=O)(=O)N1[C@H](C)c1ccccc1 is ____.
> 100 µM

Query molecule follows.
Fill in the blank: the reported TGI of O=C1c2c(Br)sc(Br)c2C(NC(=O)C(F)(F)F)C1O (centres undefined) is ____.
> 100 µM

---

System: SF-268 CNS
Test: NCI tumour cell line growth inhibition, 48 h
Property Label: TGI

Please state recorded TGI (tested on SF-268 CNS) of Cc1cc(SCC(=O)c2ccccc2)nc2ccccc12
> 100 µM

Please state recorded TGI (tested on SF-268 CNS) of CCOC(=O)C1(CO)CSCCSC1
> 100 µM

Please state recorded TGI (tested on SF-268 CNS) of CC12CCCC(O)C1CCC1=CC3(CCC12)SCCS3 (stereo unspecified)
> 10 µM

Please state recorded TGI (tested on SF-268 CNS) of [O-][n+]1nc(N2CCOCC2)nc2ccccc21
> 100 µM

Please state recorded TGI (tested on SF-268 CNS) of CCCCCCCCCCCCCCCCP(=O)(O)OCC(N)C(=O)O (stereo unspecified)
74 µM

For every listed record, write down its TGI.
1. Nc1cc(Cl)cc2cc(Cl)cnc12
2. CN(C)CCNC(=O)c1cccc(C(=O)Nc2ccccc2)c1[N+](=O)[O-]
3. CCC#CC[C@H]1C/C=C2/C(=O)C=C[C@@H]2C/C=C\CCCC(=O)O1
4. NC(CC(=O)OCc1ccccc1)C(=O)OCc1ccccc1 (stereo unspecified)
5. Nc1ccc(/C=C/c2ccnc3ccccc23)cc1

["> 100 µM", "> 100 µM", "4.55 µM", "> 100 µM", "47.5 µM"]

For every listed record, write down its TGI.
1. COc1ccc2c(c1)CCC1C3(CCCC21C)OCCO3 (stereo unspecified)
2. COc1ccc(C(C)c2cc3c(cc2OC)OCO3)cc1 (stereo unspecified)
3. Cc1nc(N)c(N2CCN(S(N)(=O)=O)CC2)c(=O)[nH]1
4. COc1ccc(OC)c(/C=C/C(=O)N/N=C/c2ccc(Cl)cc2)c1
5. COc1ccc(CC2Cc3ccccc3CCN2)cc1OC (stereo unspecified)
6. COc1cc[nH]c1/C=C1\C(=O)Nc2ccccc21
7. CCOC(=O)c1c(CN2CCN(c3ccccc3)CC2)n(-c2ccccc2)c2cc(Br)c(O)cc12

["19.9 µM", "> 56.2 µM", "> 100 µM", "> 100 µM", "> 50 µM", "> 25 µM", "41.4 µM"]

For every listed record, write down its TGI.
1. Cc1c2c(cc3c1C(=O)C(=O)C([C@@H](C)CO)=C3O)C(C)(C)CCC2
2. O=C(Nc1ccc(Cl)cc1)c1cc(-c2ccc(F)cc2)c2sc(=O)[nH]c2n1
3. CC(=O)OCC1OC(NC(=S)Nn2c(=O)[nH]c3ccccc3c2=O)C(OC(C)=O)C(OC(C)=O)C1OC(C)=O (stereo unspecified)
4. CCS(=O)(=O)c1ccc(OC)c(Nc2ncc(-c3cccc(OC)c3)o2)c1

1: > 100 µM; 2: 17.2 µM; 3: > 100 µM; 4: > 25 µM

---

Test system: HOP-92 NSCLC
Experiment: NCI tumour cell line growth inhibition, 48 h
Property Label: TGI

Fill in the blank: the reported TGI of COC(=O)C(=O)C(C(=O)C(=O)Nc1ccccc1C(N)=O)c1nc2ccc(Cl)cc2[nH]c1=O (stereo not given) is ____.
> 100 µM

Fill in the blank: the reported TGI of COc1ccc(-c2cn3ccsc3n2)cc1 is ____.
> 100 µM

Fill in the blank: the reported TGI of COc1cc2oc(-c3ccc(O)cc3)cc(=O)c2c(OC)c1OC is ____.
> 100 µM

For every listed record, write down its TGI.
1. CC[C@@]1(O)C(=O)OCc2c1cc1n(c2=O)Cc2c-1nc1ccccc1c2/C=N\NC(=O)C[n+]1ccccc1
2. OCC1OC(NC(=S)NCCC(F)(F)C(F)(F)C(F)(F)C(F)(F)C(F)(F)C(F)(F)F)C(O)C(O)C1O (stereo not given)

> 31.6 µM
> 100 µM
